TARGET_UNDER_TEST: Syk tandem SH2 (tSH2) domain
TEST: intrinsic Trp fluorescence; 20 mM KCl, 130 mM NaCl
pKd: −log10 of the molar value. Non-standard residues stand in square brackets, D forms with d. No end group written: not given here. pY = N[C@@H](Cc1ccc(OP(=O)(O)O)cc1)C(=O)O
MEASURED_ATTRIBUTE: pKd

>>> print(df.to_string())
                                     binder  measured_attribute   val
0  NQL[pY]NELNLGRREE[pY]DVLD [ITAM-ζ1-Y2P peptide (doubly phosphorylated first ITAM of the CD3-ζ chain)]                 pKd  7.07
